# System: Melanocortin receptor 4 (Homo sapiens)
# Sequence (P32245 whole entry): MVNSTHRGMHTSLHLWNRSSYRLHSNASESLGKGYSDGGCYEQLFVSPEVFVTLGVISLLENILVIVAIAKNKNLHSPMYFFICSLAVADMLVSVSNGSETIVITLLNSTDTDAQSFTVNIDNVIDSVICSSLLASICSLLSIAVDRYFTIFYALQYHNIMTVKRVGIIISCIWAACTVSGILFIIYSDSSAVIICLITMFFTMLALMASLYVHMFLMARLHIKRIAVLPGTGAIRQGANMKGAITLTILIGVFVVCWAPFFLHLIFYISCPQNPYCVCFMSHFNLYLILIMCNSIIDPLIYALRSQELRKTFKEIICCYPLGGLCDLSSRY
# Assay details: Agonist potency at MC4 receptor
# Assay type: functional
Listed here are compounds together with their documented Emax.
The figure you give is taken to be in %; do not add the unit.

Use these answered entries as a reference point.
CC(=O)N[C@H](Cc1ccc(O)cc1)C(=O)N[C@H](Cc1ccccc1)C(=O)N1C[C@H](OCc2ccccc2)C[C@@H]1CCCN=C(N)N 84
CNC(=O)[C@H](Cc1ccc2ccccc2c1)NC(=O)[C@H](CCCN=C(N)N)NC(=O)[C@H](CC[C@H](Cc1ccc(O)cc1)NC(C)=O)Cc1ccccc1 90
CNC(=O)[C@H](Cc1ccc2ccccc2c1)NC(=O)[C@H](CCCN=C(N)N)NC(=O)[C@H](CC[C@H](Cc1ccccc1)NC(C)=O)Cc1ccc(F)cc1 102
N=C(N)NCCC[C@H]1C[C@@H](OCc2ccccc2)CN1C(=O)[C@H](CC[C@H]1Cc2ccccc2CN1)Cc1ccccc1 76
CNC(=O)[C@H](Cc1ccc2ccccc2c1)NC(=O)[C@H](CCCN=C(N)N)NC(=O)[C@@H](Cc1ccccc1)NC(=O)[C@@H]1Cc2ccccc2CN1 81

Shift focus to the following entry.
## Input Item under review: CNC(=O)[C@H](Cc1ccc2ccccc2c1)NC(=O)[C@H](CCCN=C(N)N)NC(=O)[C@H](CC[C@H](Cc1ccc(Cl)cc1)NC(C)=O)Cc1ccc(F)cc1 . Reported Emax?
## Output 100
